Please go through the items and note down their SPOT peptide array binding signal intensity.
targetOrTestSystem: SpBzz1-D1
assay: SPOT peptide array binding signal intensity (averaged, normalized) (arbitrary units (background-subtracted, floor 0; scale differs between SH3 domains)); higher = stronger binding of the SH3 domain to the peptide
Respond using a number only.

So for GQYRRTIVIPRRFFT , the logged SPOT peptide array binding signal intensity turned out to be 107

So for RRLRDKYKLPIVDAD , the logged SPOT peptide array binding signal intensity turned out to be 56

So for RKQRSIPLSPIVPES , the logged SPOT peptide array binding signal intensity turned out to be 171

So for YRRKSIPFAPHQITA , the logged SPOT peptide array binding signal intensity turned out to be 189

So for LFMKGTPEFPKSGFS , the logged SPOT peptide array binding signal intensity turned out to be 140

So for HGKRRAPLLLAKLDV , the logged SPOT peptide array binding signal intensity turned out to be 204

So for RVTRKRPREPKSTND , the logged SPOT peptide array binding signal intensity turned out to be 184
